Where do these numbers come from? They come from patent US20250163186A1.

Known Confirm OD450 Duplicate2 of a selection of binders
target: T1, human IgE (human, UniProt P01854 1-428); assay: ELISA, clone lysate on IgE-coated plate
T1 construct: written under the same molecule; also called IgE (Abcam ab65866); soluble IgE
T1 sequence (P01854 other isoform, or with tags, fused parts or gaps limits assumed, form in doubt): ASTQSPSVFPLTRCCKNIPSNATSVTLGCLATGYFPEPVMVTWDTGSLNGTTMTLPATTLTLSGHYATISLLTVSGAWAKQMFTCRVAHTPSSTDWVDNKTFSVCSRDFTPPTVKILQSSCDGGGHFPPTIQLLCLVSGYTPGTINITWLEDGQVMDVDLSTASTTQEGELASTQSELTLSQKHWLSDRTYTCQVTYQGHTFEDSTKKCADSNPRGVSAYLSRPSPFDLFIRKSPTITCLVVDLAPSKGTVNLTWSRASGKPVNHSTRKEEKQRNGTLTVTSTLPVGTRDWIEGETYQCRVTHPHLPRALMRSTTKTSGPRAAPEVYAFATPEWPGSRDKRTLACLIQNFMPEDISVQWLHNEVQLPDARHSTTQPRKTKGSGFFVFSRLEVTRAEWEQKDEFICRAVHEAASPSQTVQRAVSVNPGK

6F11 (VHH, also called hzB10v40 VHH, CDR1 site 6 S to R) VHH: EVQLLESGGGEVQPGGSLRLSCVASGLTFSRYNMGWLRQAPGKEREFVGLSGSSSTSTYYAESVKGRFTISRDNAKNTVYLQMTSLRAEDTAVYYCAARRLLSTYWSDRSWDFWGQGTLVTVEP; 0.402

Next up:
**Query** Given the entry 39E11 (VHH) VHH: EVQLLESGGGEVQPGGSLRLSCVASGLTFSSYNMGWLRQAPGKEREFVGLSGSSSTSTYYAESVKGRFTISRDNAKNTVYLQMTSLRAEDTAVYYCAARRLLSTYWSHRSWDFWGQGTLVTVEP , report its measured Confirm OD450 Duplicate2.
**Result** 0.534
